Reference source for all entries: patent US5095016A

I'd appreciate it if you could supply LD50 at 72 h values for the items below.
Assay: Acute toxicity test (oral)
Settings: mouse, in vivo, male mice, mortality after 72 hours

Give LD50 at 72 h for each listed item.
1. CC(=NC#N)NC1=CC(C)(C)Oc2ccc(C#N)cc21
2. CC(=NC#N)N[C@@H]1c2cc(C#N)ccc2OC(C)(C)[C@H]1O (relative stereo)

["≥ 2000 mg/kg", "≥ 2000 mg/kg"]
